Each record here notes measured log10 IC50.
Molecular target: Ileal sodium/bile acid cotransporter (Homo sapiens, UniProt Q12908)
Sequence (Q12908 whole entry): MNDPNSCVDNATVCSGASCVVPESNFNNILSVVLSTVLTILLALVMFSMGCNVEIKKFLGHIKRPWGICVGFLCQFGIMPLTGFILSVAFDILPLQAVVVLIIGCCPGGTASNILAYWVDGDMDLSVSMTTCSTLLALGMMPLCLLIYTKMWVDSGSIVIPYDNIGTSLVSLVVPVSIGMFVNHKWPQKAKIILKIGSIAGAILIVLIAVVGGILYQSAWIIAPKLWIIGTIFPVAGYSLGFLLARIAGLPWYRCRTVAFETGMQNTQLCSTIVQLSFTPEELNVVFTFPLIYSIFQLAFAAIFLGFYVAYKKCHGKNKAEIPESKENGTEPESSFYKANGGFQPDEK
Assay: Inhibition of human ASBT expressed in HEK293 cells assessed as inhibition of [3H]-taurocholate uptake after 90 mins by scintillation counting analysis
Parameter value (number): base-10 log of IC50 in nM.

Solved cases (2 shown):
compound_structure=CCCC[C@]1(CC)CS(=O)(=O)c2cc(CNCC(=O)O)c(OC)cc2[C@@H](c2ccccc2)N1 measured_property="log10 IC50" measured_number=0.60
compound_structure=CCCC[C@]1(CC)CS(=O)(=O)c2cc(CN(C)CCC(=O)O)c(OC)cc2[C@@H](c2ccccc2)N1 measured_property="log10 IC50" measured_number=2.56

Sample CCCC[C@]1(CC)CS(=O)(=O)c2cc(OCCCS(=O)(=O)O)c(OC)cc2[C@@H](c2ccccc2)N1 ; log10 IC50 observed: 1.70

Sample CCCC[C@]1(CC)CS(=O)(=O)c2cc(CN(CC(=O)O)CC(=O)O)c(OC)cc2[C@@H](c2ccccc2)N1 ; log10 IC50 observed: 2.39

Sample CCCC[C@]1(CC)CS(=O)(=O)c2cc(OCCCP(=O)(O)O)c(OC)cc2[C@@H](c2ccccc2)N1 ; log10 IC50 observed: 2.12

Sample CCCC[C@]1(CC)CS(=O)(=O)c2cc(CNC(CC(=O)O)CC(=O)O)c(OC)cc2[C@@H](c2ccccc2)N1 ; log10 IC50 observed: 1.62

Sample CCCC[C@]1(CC)CS(=O)(=O)c2cc(OCCCC(=O)O)c(OC)cc2[C@@H](c2ccccc2)N1 ; log10 IC50 observed: 1.11

Sample CCCC[C@]1(CC)CS(=O)(=O)c2cc(OC)c(OC)cc2[C@@H](c2ccccc2)N1 ; log10 IC50 observed: 2.26
